# Test system: HCT-116 cell line
# MEASUREMENT_DESCRIPTION: Inhibition of cell growth, tetrazolium salt (MTT) assay
# Assay type: cell-based
# CONDITION_LABEL: Homo sapiens, HCT-116, 120 h, first HCT-116 column (c4); MTT, three to five days; read-out: HCT-116 IC50
pIC50: −log10 of the molar value. Counter-ions that a name gives are not always drawn.
QUANTITY_KIND: pIC50

Worked examples, 5 molecules total:
Nc1nc(NC2CCN(S(=O)(=O)c3cccs3)CC2)sc1C(=O)c1c(F)cccc1F ... 6.52
CC(=O)N(C)C1CCN(CCCS(=O)(=O)N2CCC(Nc3nc(N)c(C(=O)c4c(F)cccc4F)s3)CC2)C1 (centres unmarked) ... 5.70
Cc1cccc(CNCCCS(=O)(=O)N2CCC(Nc3nc(N)c(C(=O)c4c(F)cccc4F)s3)CC2)c1 ... 7.05
CN(C)c1ccc(NC(=O)N2CCC(Nc3nc(N)c(C(=O)c4c(F)cccc4F)s3)CC2)cc1 ... 6.46
CN1CCC[C@@H](Oc2ccc(S(=O)(=O)N3CCC(Nc4nc(N)c(C(=O)c5c(F)cccc5F)s4)CC3)cn2)C1 [Example H26, Hydrochloride] ... 7.66

a = CN(CCS(=O)(=O)N1CCC(Nc2nc(N)c(C(=O)c3c(F)cccc3F)s2)CC1)Cc1ccccc1
b = CN(C)CC#Cc1ccc(S(=O)(=O)N2CCC(Nc3nc(N)c(C(=O)c4c(F)cccc4F)s3)CC2)cc1
c = Nc1nc(NC2CCN(S(=O)(=O)c3ccc(Br)s3)CC2)sc1C(=O)c1c(F)cccc1F
d = Nc1nc(NC2CCN(S(=O)(=O)CCCNc3ccccn3)CC2)sc1C(=O)c1c(F)cccc1F [Example K56, Trifluoroacetic Acid Salt]
hey, can you rank those molecules up there by pIC50? biggest number first please Return the labels ranked in the requested order, please.
a, b, c, d
(a: 7.36, b: 7.00, c: 6.55, d: 5.58)
